system: RAW264.7 cells; assay: In vitro cytotoxicity assay (MTT); format: cell-based, mouse; settings: RAW264.7, MTT
Assign labels as follows, please: label 1 for CC50 below 60 µM; label 0 for CC50 equal to or exceeding 60 µM.

{"columns": ["chemical_string", "group_label"],
 "data": [
  ["CCOC(=O)c1sc(NC(=O)C(=NNc2ccccc2C(=O)OC)C(C)=O)nc1C", "label 1"],
  ["CC(=O)C(=NNc1ccccc1C(=O)O)C(=O)Nc1nc(C)c(C(=O)N2CCOCC2)s1", "label 0"],
  ["CC(=O)C(=NNc1ccccc1C(=O)O)C(=O)Nc1ccc(C#N)cn1", "label 0"],
  ["CC(=O)C(=NNc1ccccc1C(=O)O)C(=O)Nc1nc(C)c(C(=O)O)s1", "label 0"],
  ["CCOC(=O)c1sc(NC(=O)C(=NNc2cc(C)ccc2C(=O)O)C(C)=O)nc1C", "label 1"],
  ["CC(C)OC(=O)C(=NNc1ccccc1C(=O)O)C(=O)Nc1ccccn1", "label 1"],
  ["CC(=O)C(=NNc1ccccc1C(=O)O)C(=O)Nc1nccs1", "label 0"],
  ["CC(=O)C(=NNc1ccc(O)cc1C(=O)O)C(=O)Nc1ccccn1", "label 0"],
  ["CC(=O)C(=NNc1ccccc1C(=O)O)C(=O)Nc1nc2ccccc2s1", "label 0"],
  ["COC(=O)c1cccc(NC(=O)C(=NNc2ccccc2C(=O)O)C(C)=O)n1", "label 0"],
  ["CC(=O)C(=NNc1ccccc1C(=O)[O-])C(=O)Nc1nc(C)cs1.[Na+]", "label 0"],
  ["CCOC(=O)c1sc(NC(=O)C(=NNc2ccc(C(=O)O)cc2)C(C)=O)nc1C", "label 1"],
  ["CCOC(=O)c1sc(NC(=O)C(=NNc2ccccc2C(=O)O)C(=O)OC(C)C)nc1C", "label 0"],
  ["CCOC(=O)c1sc(NC(=O)C(=NNc2c(C)cccc2C(=O)O)C(C)=O)nc1C", "label 0"],
  ["CCOC(=O)c1sc(NC(=O)C(=NNc2ccc(OC)cc2C(=O)O)C(C)=O)nc1C", "label 0"],
  ["CCOC(=O)c1sc(NC(=O)C(=NNc2ccc(F)cc2C(=O)O)C(C)=O)nc1C", "label 0"],
  ["CCOC(=O)c1sc(NC(=O)C(=NNc2ccccc2CO)C(C)=O)nc1C", "label 1"],
  ["CC(=O)C(=NNc1ccccc1C(=O)O)C(=O)N1CCOCC1", "label 1"],
  ["CCOC(=O)c1sc(NC(=O)C(=NNc2ccccc2O)C(C)=O)nc1C", "label 0"]
]}
